All figures here come from patent US20240383908A1.

Target: SHP2 protein (Homo sapiens)
Sequence (Q06124 1-593): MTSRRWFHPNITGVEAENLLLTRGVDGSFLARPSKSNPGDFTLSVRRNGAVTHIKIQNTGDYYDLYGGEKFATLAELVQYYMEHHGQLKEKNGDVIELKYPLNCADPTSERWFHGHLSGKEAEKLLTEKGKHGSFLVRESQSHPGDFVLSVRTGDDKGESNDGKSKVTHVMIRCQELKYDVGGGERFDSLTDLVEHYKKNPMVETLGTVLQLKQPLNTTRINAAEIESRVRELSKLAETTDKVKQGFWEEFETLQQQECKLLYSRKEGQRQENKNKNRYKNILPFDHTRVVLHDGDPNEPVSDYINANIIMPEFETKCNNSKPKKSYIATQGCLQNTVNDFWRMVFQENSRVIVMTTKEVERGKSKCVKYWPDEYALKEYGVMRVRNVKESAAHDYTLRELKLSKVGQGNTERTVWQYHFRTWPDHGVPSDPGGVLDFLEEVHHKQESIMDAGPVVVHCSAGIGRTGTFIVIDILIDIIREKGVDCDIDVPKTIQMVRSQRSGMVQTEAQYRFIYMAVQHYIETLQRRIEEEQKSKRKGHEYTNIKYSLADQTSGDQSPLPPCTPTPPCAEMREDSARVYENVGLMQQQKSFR
Experiment: Degradation activity on SHP2 protein in NCI-H358 cells (Western blot, DC50)
Assay type: cell-based
Design: endogenous in cells
Settings: read-out: Degradation activity for differenct cell lines NCI-H358 (DC50)
Listed below: DC50 values for each entry.

compound: Cc1cc(N2CCC(N3CC=C(c4ccc(C(=O)NCc5ccc6c(c5)CN(C5CCC(=O)NC5=O)C6=O)nc4)CC3)CC2)ccc1C(=O)Nc1cccc(Sc2cnc(N3CCC(C)(N)CC3)cn2)c1 (stereo not shown)
DC50: < 100 nM
//
compound: CC1(N)CCN(c2cnc(Sc3cccc(NC(=O)CCCCCCCCN4CC=C(c5ccc(C(=O)NCc6ccc7c(c6)CN(C6CCC(=O)NC6=O)C7=O)nc5)C(C)(C)C4)c3)cn2)CC1 (stereo not shown)
DC50: < 100 nM
//
compound: Cc1ncsc1-c1ccc([C@H](C)NC(=O)[C@@H]2C[C@@H](O)CN2C(=O)[C@@H](NC(=O)c2cnc(N3CCN(CCCCCCC(=O)Nc4cccc(Sc5cnc(N6CCC(C)(N)CC6)cn5)c4)CC3)nc2)C(C)(C)C)cc1
DC50: < 100 nM
//
compound: CC1(N)CCN(c2cnc(Sc3cccc(NC(=O)c4ccc(N5CCC(N6CC=C(c7cnc(C(=O)NCc8ccc9c(c8)CN(C8CCC(=O)NC8=O)C9=O)c(Cl)c7)CC6)CC5)cc4)c3)cn2)CC1 (stereo not shown)
DC50: < 100 nM
//
compound: CC1(N)CCN(c2cnc(Sc3cccc(NC(=O)c4ccc(-c5ccc(N6CCN(c7ccc(C(=O)NCc8ccc9c(c8)CN(C8CCC(=O)NC8=O)C9=O)nc7)CC6)cc5)cc4)c3)cn2)CC1 (stereo not shown)
DC50: > 1000 nM
//
compound: CC1(N)CCN(c2cnc(Sc3cccc(NC(=O)CCCCCCCCN4C5CCC4CC(c4ccc(C(=O)NCc6ccc7c(c6)CN(C6CCC(=O)NC6=O)C7=O)nn4)C5)c3)cn2)CC1 (single isomer, unassigned) [Compound 232]
DC50: < 100 nM
//
compound: C[C@H]1CN(c2ccc(C(=O)NCc3ccc4c(c3)CN(C3CCC(=O)NC3=O)C4=O)nn2)CCN1CCCCCCCCC(=O)Nc1cccc(Sc2cnc(N3CCC(C)(N)CC3)cn2)c1 (stereo partly shown)
DC50: < 100 nM
//
compound: CC1(N)CCN(c2cnc(Sc3cccc(NC(=O)CCCCOc4ccc(N5CCN(c6ccc(C(=O)NCc7ccc8c(c7)CN(C7CCC(=O)NC7=O)C8=O)nn6)CC5)cc4)c3)cn2)CC1 (stereo not shown)
DC50: < 100 nM
//
compound: CC1(N)CCN(c2cnc(Sc3cccc(NC(=O)c4ccc(N5CCC(N6CC=C(c7ncc(C(=O)NCc8ccc9c(c8)CN(C8CCC(=O)NC8=O)C9=O)cc7Cl)CC6)CC5)cc4)c3)cn2)CC1 (stereo not shown)
DC50: < 100 nM
//
compound: CC1(N)CCN(c2cnc(Sc3cccc(NC(=O)c4csc(N5CCC(N6CC=C(c7ccc(C(=O)NCc8ccc9c(c8)CN(C8CCC(=O)NC8=O)C9=O)nn7)CC6)CC5)n4)c3)cn2)CC1 (stereo not shown)
DC50: < 100 nM
//
compound: CC1(N)CCN(c2cnc(Sc3cccc(NC(=O)CCCCCCN4CC5(CCC(c6ccc(C(=O)NCc7ccc8c(c7)CN(C7CCC(=O)NC7=O)C8=O)nc6)CC5)C4)c3)cn2)CC1 (stereo not shown)
DC50: < 100 nM
//
compound: Cc1cc(C(=O)Nc2cccc(Sc3cnc(N4CCC(C)(N)CC4)cn3)c2)ccc1N1CCC(N2CC=C(c3ccc(C(=O)NCc4ccc5c(c4)CN(C4CCC(=O)NC4=O)C5=O)nc3)CC2)CC1 (stereo not shown)
DC50: < 100 nM
//
compound: CC1(N)CCN(c2cnc(Sc3cccc(NC(=O)c4ccc(N5CCC(N6CC=C(c7cnc(C(=O)NCc8ccc9c(c8)CN(C8CCC(=O)NC8=O)C9=O)cc7Cl)CC6)CC5)nc4)c3)cn2)CC1 (stereo not shown)
DC50: < 100 nM
//
compound: CC1(N)CCN(c2cnc(Sc3cccc(NC(=O)CCCCCCCCN4CCN(c5ccc(C(=O)NCc6ccc7c(c6)CN(C6CCC(=O)NC6=O)C7=O)nn5)CC4)c3)cn2)CC1 (stereo not shown)
DC50: < 100 nM
//
compound: CC1(N)CCN(c2cnc(Sc3cccc(NC(=O)CCCCCCCCN4CCN(c5ccc(C(=O)NCc6ccc7c(c6)CN(C6CCC(=O)NC6=O)C7=O)cc5)CC4)c3)cn2)CC1 (stereo not shown)
DC50: < 100 nM
//
compound: CC1(N)CCN(c2cnc(Sc3cccc(NC(=O)CCCCCOC4CC5(CCN(c6ccc(C(=O)NCc7ccc8c(c7)CN(C7CCC(=O)NC7=O)C8=O)cc6F)CC5)C4)c3)cn2)CC1 (stereo not shown)
DC50: 100 to 1000 nM
//
compound: Cc1ncsc1-c1ccc([C@H](C)NC(=O)[C@@H]2C[C@@H](O)CN2C(=O)[C@@H](NC(=O)c2cnc(N3CCC4(CN(CCC(=O)Nc5cccc(Sc6cnc(N7CCC(C)(N)CC7)cn6)c5)C4)C3)nc2)C(C)(C)C)cc1
DC50: 100 to 1000 nM
//
compound: CC1(N)CCN(c2cnc(Sc3cccc(NC(=O)CCCCCCCCN4CC=C(c5ccc(C(=O)NCc6ccc7c(c6)CN(C6CCC(=O)NC6=O)C7=O)nn5)CC4)c3)cn2)CC1 (stereo not shown)
DC50: < 100 nM
//
compound: CC1(N)CCN(c2cnc(Sc3cccc(NC(=O)c4ccc(N5CCC(N6CC=C(c7cnc(C(=O)NCc8ccc9c(c8)CN(C8CCC(=O)NC8=O)C9=O)cc7Cl)CC6)CC5)c(F)c4)c3)cn2)CC1 (stereo not shown)
DC50: < 100 nM

---

Molecular target: SHP2 protein (Homo sapiens, UniProt Q06124)
Assay: Degradation activity on SHP2 protein in MIA Paca-2 cells (Western blot, DC50)
Assay type: cell-based
Design: endogenous in cells; host or cells: MIA Paca-2 cells
Details: read-out: Degradation activity for differenct cell lines MIA Paca-2 (DC50)
Listed below: DC50 values for each entry.

compound: COc1nc(N2CCC3(CN(CCCCCCC(=O)Nc4cccc(Sc5cnc(N6CCC(C)(N)CC6)cn5)c4)C3)C2)ccc1C(=O)NCc1ccc2c(c1)CN(C1CCC(=O)NC1=O)C2=O (stereo not drawn)
DC50: < 0.1 µM
--
compound: CC1(N)CCN(c2cnc(Sc3cccc(NC(=O)c4ccc(N5CCC(N6CC=C(c7ccc(C(=O)NCc8ccc9c(c8)CN(C8CCC(=O)NC8=O)C9=O)nc7F)CC6)CC5)c(F)c4)c3)cn2)CC1 (stereo not drawn)
DC50: < 0.1 µM
--
compound: CC1(N)CCN(c2cnc(Sc3cccc(NC(=O)C4CC45CCC(N4CC=C(c6ccc(C(=O)N7CCN(c8ccc9c(c8)CN(C8CCC(=O)NC8=O)C9=O)CC7)nc6)CC4)CC5)c3)cn2)CC1 (single isomer, unassigned) [Compound 323]
DC50: > 1 µM
--
compound: C[C@@H]1OCC2(CCN(c3cnc(Sc4cccc(NC(=O)c5ccc(N6CCC(N7CC=C(c8cnc(C(=O)NCc9ccc%10c(c9)CN(C9CCC(=O)NC9=O)C%10=O)cc8Cl)CC7)CC6)c(F)c5)c4)cn3)CC2)[C@@H]1N (stereo partly drawn)
DC50: < 0.1 µM
--
compound: CC1(N)CCN(c2cnc(Sc3cccc(NC(=O)c4ccc(N5CCC(N6CCN(c7cnc(C(=O)NCc8ccc9c(c8)CN(C8CCC(=O)NC8=O)C9=O)cc7Cl)CC6)CC5)cc4)c3)cn2)CC1 (stereo not drawn)
DC50: < 0.1 µM
--
compound: CC1(N)CCN(c2cnc(Sc3cccc(NC(=O)c4ccc(N5CCC(N6C=C(c7ncc(C(=O)NCc8ccc9c(c8)CN(C8CCC(=O)NC8=O)C9=O)o7)CC6)CC5)c(F)c4)c3)cn2)CC1 (stereo not drawn)
DC50: > 1 µM
--
compound: Cc1ncsc1-c1ccc([C@H](C)NC(=O)[C@@H]2C[C@@H](O)CN2C(=O)[C@@H](NC(=O)c2cnc(N3CC(OCCCCCCCCC(=O)Nc4ccc(Sc5cnc(N6CCC(C)(N)CC6)cn5)cc4)C3)nc2)C(C)(C)C)cc1
DC50: < 0.1 µM
--
compound: CC1(N)CCN(c2cnc(Sc3cccc(NC(=O)C4CC(N5CCN(c6ccc7c(c6)CN(C6CCC(=O)NC6=O)C7=O)CC5)C4)c3)cn2)CC1 (stereo not drawn)
DC50: > 1 µM
--
compound: CC1(N)CCN(c2cnc(Sc3cccc(NC(=O)c4ccc(N5CCC(N6CCN(c7ccc(C(=O)NCc8ccc9c(c8)CN(C8CCC(=O)NC8=O)C9=O)nc7)CC6)CC5)nn4)c3)cn2)CC1 (stereo not drawn)
DC50: < 0.1 µM
--
compound: O=C1CCC(N2Cc3cc(CNC(=O)c4ccc(N5CCC6(CN(CCCCCCC(=O)Nc7cccc(Sc8cnc(N9CCCCC9)cn8)c7)C6)C5)nn4)ccc3C2=O)C(=O)N1 (stereo not drawn)
DC50: > 1 µM
--
compound: Cc1cc(C(=O)Nc2cccc(Sc3cnc(N4CCC(C)(N)CC4)cn3)c2)cc(C)c1N1CCC(N2CC=C(c3ccc(C(=O)NCc4ccc5c(c4)CN(C4CCC(=O)NC4=O)C5=O)nc3)CC2)CC1 (stereo not drawn)
DC50: < 0.1 µM
--
compound: CC1(N)CCN(c2cnc(Sc3cccc(NC(=O)C4CC45CCC(N4CC=C(c6ccc(C(=O)Nc7ccc8c(c7)CN(C7CCC(=O)NC7=O)C8=O)nc6)CC4)CC5)c3)cn2)CC1 (single isomer, unassigned)
DC50: > 1 µM
--
compound: C[C@@H]1OCC2(CCN(c3cnc(Sc4cccc(NC(=O)c5ccc(N6CCN(c7ccc(C(=O)NCc8ccc9c(c8)C(=O)N(C8CCC(=O)NC8=O)C9)nn7)CC6)c(F)c5)c4)cn3)CC2)[C@@H]1N (stereo partly drawn)
DC50: < 0.1 µM
--
compound: CC1(N)CCN(c2cnc(Sc3cccc(NC(=O)CCCCc4ccc(N5CCN(c6ccc(C(=O)NCc7ccc8c(c7)CN(C7CCC(=O)NC7=O)C8=O)nn6)CC5)cc4)c3)cn2)CC1 (stereo not drawn)
DC50: < 0.1 µM
--
compound: CCC1(N)CCN(c2cnc(Sc3cccc(NC(=O)CCCCCCN4CC5(CCN(c6ccc(C(=O)NCc7ccc8c(c7)CN(C7CCC(=O)NC7=O)C8=O)nn6)C5)C4)c3)cn2)CC1 (stereo not drawn)
DC50: < 0.1 µM
--
compound: Cc1cc(C(=O)NCc2ccc3c(c2)CN(C2CCC(=O)NC2=O)C3=O)ncc1C1=CCN(C2CCN(c3ccc(C(=O)Nc4cccc(Sc5cnc(N6CCC7(CC6)CO[C@@H](C)[C@H]7N)cn5)c4)cc3F)CC2)CC1 (stereo partly drawn) [Compound 458]
DC50: > 1 µM
--
compound: CC1(N)CCN(c2cnc(Sc3cccc(NC(=O)c4ccc(C5=CCC(N6CC=C(c7ccc(C(=O)NCc8ccc9c(c8)CN(C8CCC(=O)NC8=O)C9=O)nc7)CC6)CC5)nc4)c3)cn2)CC1 (stereo not drawn)
DC50: > 1 µM
--
compound: Cc1ncsc1-c1ccc([C@H](C)NC(=O)[C@@H]2C[C@@H](O)CN2C(=O)[C@@H](NC(=O)c2cnc(N3CCC4(CN(CCCCCCC(=O)Nc5cccc(Sc6cnc(N7CCC(C)(N)CC7)cn6)c5)C4)C3)nc2)C(C)(C)C)cc1
DC50: < 0.1 µM
